Value source: patent US20230398116A1

Target: T1, IL-26 (Homo sapiens, UniProt Q9NPH9)
T1 sequence (Q9NPH9 22-171): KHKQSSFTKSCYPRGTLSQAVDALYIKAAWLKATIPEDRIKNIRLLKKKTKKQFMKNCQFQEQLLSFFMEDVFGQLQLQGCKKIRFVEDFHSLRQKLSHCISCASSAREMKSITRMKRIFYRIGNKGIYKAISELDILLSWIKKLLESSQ
Assay: ELISA of antigen binding to human IL-26
Parameters: purchased R&D Systems 1375-IL/CF
Conditions: plates coated with 0.5 μg/ml human IL-26 monomer; calculated using GraphPadPrism
Observable: EC50 values (binding to human IL-26, ELISA) (µg/mL)
State the answer as a number, implicitly in µg/mL.

Return reported EC50 values (binding to human IL-26, ELISA). Input molecule: 69-10: mouse anti-human IL-26 monoclonal antibody, clone 69-10, from deposited hybridoma (antibody, V domains shown) VH: QVTLKESGPGILKPSQTLSLTCSFSGFSLSTSGMGVGWIRQPSGKGLEWLAHIWWDDDKYYNPSLKSQLTISKDTSRNQVFLKITSVDTADTATYYCVRGGITATHYYAMDYWGQGTSVTVSS VL: DIQMTQSPASQSASLGESVTISCLASQTIGTWLSWYQQKPGKSPQLLIYAATSLADGVPSRFSGSGSGTKFSFKISSLQAEDFVSYYCQQLYSSPWTFGGGTKLEIK
0.34
